meta.source: patent US11780830B2

ASSAY_TARGET: recombinant human MAO-B (monoamine oxidase-B) (Homo sapiens, UniProt P27338)
Construct: purchased Sigma-Aldrich
Sequence (P27338 1-520): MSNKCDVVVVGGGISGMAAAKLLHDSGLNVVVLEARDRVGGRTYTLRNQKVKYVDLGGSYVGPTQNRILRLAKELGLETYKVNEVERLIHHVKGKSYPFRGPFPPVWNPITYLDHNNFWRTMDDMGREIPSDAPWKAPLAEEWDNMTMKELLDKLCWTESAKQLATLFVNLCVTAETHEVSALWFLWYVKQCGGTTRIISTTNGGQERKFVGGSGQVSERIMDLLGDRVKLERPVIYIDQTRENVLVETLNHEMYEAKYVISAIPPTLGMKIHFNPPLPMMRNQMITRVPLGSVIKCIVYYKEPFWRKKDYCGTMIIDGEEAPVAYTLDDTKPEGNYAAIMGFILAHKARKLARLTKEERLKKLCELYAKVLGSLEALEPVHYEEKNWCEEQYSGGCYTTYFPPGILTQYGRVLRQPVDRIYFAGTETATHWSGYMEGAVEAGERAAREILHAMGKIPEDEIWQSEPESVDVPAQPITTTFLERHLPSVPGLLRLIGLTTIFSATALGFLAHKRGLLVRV
PROTOCOL: Activity on recombinant human MAO-B, method similar to the VAP-1 assay
Assay type: biochemical
RECORDED_CONDITIONS: substrate 1 mM benzylamine; read-out: Inhibitory Activity (IC50, nM) MAO-B
Structures can show the parent of a compound that is named as a salt.
PROPERTY_NAME: IC50 (nM)

// known answers, use as guide
{"columns": ["COMPOUND", "ASSAY_TARGET", "PROPERTY_NAME", "TEST_VALUE"],
 "data": [
  ["NC/C(=C\\F)Cn1ncn(Cc2ccc(C#Cc3ccc4c(c3)NCCO4)s2)c1=O", "recombinant human MAO-B (monoamine oxidase-B) (Homo sapiens, UniProt P27338)", "IC50", 300],
  ["CC(C)n1cc(-c2ccc(Cn3cnn(C/C(=C/F)CN)c3=O)s2)ccc1=O", "recombinant human MAO-B (monoamine oxidase-B) (Homo sapiens, UniProt P27338)", "IC50", 2600],
  ["NC/C(=C\\F)Cn1ncn(Cc2ccc(-c3ccnnc3)s2)c1=O", "recombinant human MAO-B (monoamine oxidase-B) (Homo sapiens, UniProt P27338)", "IC50", 4400],
  ["CC(C)c1nc(-c2ccc(-c3ccc(Cn4cnn(C/C(=C/F)CN)c4=O)s3)cc2)no1 [Example 37, hydrochloride]", "recombinant human MAO-B (monoamine oxidase-B) (Homo sapiens, UniProt P27338)", "IC50", 590],
  ["NC/C(=C\\F)Cn1ncn(Cc2ccc(-c3ccc(-c4nnc[nH]4)cc3)s2)c1=O", "recombinant human MAO-B (monoamine oxidase-B) (Homo sapiens, UniProt P27338)", "IC50", 73]
]}

[1] NC/C(=C\F)Cn1ncn(Cc2ccc(C#Cc3cnc4c(c3)OCC(=O)N4)s2)c1=O [Example 139, hydrochloride]
[2] CN(C)c1ccc(-c2ccc(Cn3cnn(C/C(=C/F)CN)c3=O)s2)cc1 [Example 5, hydrochloride]
[3] NC/C(=C\F)Cn1ncn(Cc2ccc(-c3ccc(C(=O)N4CCOCC4)cc3)s2)c1=O [Example 27, hydrochloride]
Task: Ascending sort, IC50. Please list each label once, in the requested order.
Output: 1, 2, 3
(1: 73 nM, 2: 680 nM, 3: 18000 nM)

====

ASSAY_TARGET: recombinant human MAO-B (monoamine oxidase-B) (Homo sapiens)
Construct: purchased Sigma-Aldrich
PROTOCOL: Activity on recombinant human MAO-B, method similar to the VAP-1 assay
Format: biochemical
RECORDED_CONDITIONS: substrate 1 mM benzylamine; read-out: Inhibitory Activity (IC50, nM) MAO-B
Structures can show the parent of a compound that is named as a salt.
PROPERTY_NAME: IC50 (nM)

[P] Cc1cc(-c2ccc(Cn3cnn(C/C(=C/F)CN)c3=O)s2)cc2c1NC(=O)CC2 [Example 77, hydrochloride]
[Q] CCOc1ncc(-c2ccc(Cn3cnn(C/C(=C/F)CN)c3=O)s2)cn1 [Example 179]
[R] NC/C(=C\F)Cn1ncn(Cc2ccc(/C=C/c3ccc(O)cc3)s2)c1=O [Example 116, hydrochloride]
Task: Put the above molecules in order of rising IC50, beginning with the smallest. Returns: the labels listed in the requested order.
Output: R, P, Q
(R: 180 nM, P: 1300 nM, Q: 8400 nM)

[I] NC/C(=C\F)Cn1ncn(Cc2ccc(-c3ccc(CO)cc3)s2)c1=O [Example 169]
[II] NC/C(=C\F)Cn1ncn(Cc2ccc(-c3cccc(-c4cc[nH]n4)c3)s2)c1=O [Example 184]
[III] NC/C(=C\F)Cn1ncn(Cc2ccc(-c3c[nH]c4ncccc34)s2)c1=O [Example 115, hydrochloride]
[IV] NC/C(=C\F)Cn1ncn(Cc2ccc(C#Cc3cccc(N)c3)s2)c1=O [Example 125, hydrochloride]
Task: Task field, ranking: reported IC50, descending order. Could you list the labels in the order requested?
Output: IV, I, II, III

[P] Cc1cc(-c2ccc(Cn3cnn(C/C(=C/F)CN)c3=O)s2)n(C)n1 [Example 158]
[Q] NC/C(=C\F)Cn1ncn(Cc2ccc(-c3cccc(-c4ncon4)c3)s2)c1=O [Example 34]
[R] NC/C(=C\F)Cn1ncn(Cc2ccc(-c3ccn4ncnc4c3)s2)c1=O [Example 66, hydrochloride]
[S] NC/C(=C\F)Cn1ncn(Cc2ccc(-c3ccc(S(=O)(=O)NC4CC4)cc3)s2)c1=O [Example 197]
[T] CN1C(=O)COc2ncc(-c3ccc(Cn4cnn(C/C(=C/F)CN)c4=O)s3)cc21 [Example 150]
Task: In this exercise, place the 5 molecules in ascending sequence of their recorded IC50. Order the labels as requested and give them as your answer.
Output: Q, P, R, S, T
(Q: 116 nM, P: 430 nM, R: 1200 nM, S: 2700 nM, T: 26000 nM)

====

ASSAY_TARGET: recombinant human MAO-A (monoamine oxidase-A) (Homo sapiens)
Construct: purchased Sigma-Aldrich
Sequence (P21397 whole entry): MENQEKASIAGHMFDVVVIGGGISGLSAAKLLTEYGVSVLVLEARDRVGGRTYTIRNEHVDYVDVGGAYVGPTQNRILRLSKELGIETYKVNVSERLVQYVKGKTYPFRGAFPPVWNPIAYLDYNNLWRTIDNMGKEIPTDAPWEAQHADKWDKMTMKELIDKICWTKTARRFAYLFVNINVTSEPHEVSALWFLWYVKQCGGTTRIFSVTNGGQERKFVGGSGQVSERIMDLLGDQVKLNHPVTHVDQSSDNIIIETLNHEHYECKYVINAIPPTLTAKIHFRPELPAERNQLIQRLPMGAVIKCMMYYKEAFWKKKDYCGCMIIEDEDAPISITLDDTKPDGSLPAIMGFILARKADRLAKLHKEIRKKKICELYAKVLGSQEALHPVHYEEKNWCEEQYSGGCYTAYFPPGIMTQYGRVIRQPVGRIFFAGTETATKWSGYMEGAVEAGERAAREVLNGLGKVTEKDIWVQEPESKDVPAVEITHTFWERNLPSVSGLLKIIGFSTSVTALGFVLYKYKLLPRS
PROTOCOL: Activity on recombinant human MAO-A, method similar to the VAP-1 assay
Assay type: biochemical
RECORDED_CONDITIONS: substrate 0.5 mM tyramine; read-out: Inhibitory Activity (IC50, nM) MAO-A
Structures can show the parent of a compound that is named as a salt.
Listed compounds paired with reported IC50

# annotated cases, reported IC50 shown
{"columns": ["COMPOUND", "IC50"],
 "data": [
  ["NC/C(=C\\F)Cn1ncn(Cc2ccc(-c3ccc4c(c3)CC(=O)N4)s2)c1=O [Example 69, hydrochloride]", "70000 nM"],
  ["CC(=O)N1CCN(c2ccc(-c3ccc(Cn4cnn(C/C(=C/F)CN)c4=O)s3)cc2)CC1 [Example 24, hydrochloride]", "21000 nM"],
  ["NC/C(=C\\F)Cn1ncn(Cc2ccc(/C=C/c3cnc4[nH]c(=O)oc4c3)s2)c1=O [Example 122, hydrochloride]", "> 100000 nM"],
  ["NC/C(=C/F)Cn1ncn(Cc2ccc(-c3ccc4c(c3)OCO4)s2)c1=O [Example 60, hydrochloride]", "> 10000 nM"],
  ["NC/C(=C\\F)Cn1ncn(Cc2cc3cc(-c4ccc(N5CCNCC5)cc4)ccc3s2)c1=O", "> 100000 nM"],
  ["Cn1nc(C(F)(F)F)cc1-c1ccc(Cn2cnn(C/C(=C/F)CN)c2=O)s1", "> 100000 nM"],
  ["CN(C)c1ccc(/C=C/c2ccc(Cn3cnn(C/C(=C/F)CN)c3=O)s2)cc1", "16000 nM"],
  ["Cc1cc(-c2ccc(Cn3cnn(C/C(=C/F)CN)c3=O)s2)cc2c(C(F)(F)F)cc(=O)[nH]c12", "36000 nM"]
]}

Task: Need IC50 of NC/C(=C\F)Cn1ncn(Cc2ccc(-c3ccc4[nH]ncc4c3)s2)c1=O [Example 63, hydrochloride] , thanks.
Output: 67000 nM

Task: Now the compound `Cc1cc(-c2ccc(CCn3cnn(C/C(=C/F)CN)c3=O)s2)cc2c1NC(=O)CC2`
Output: > 100000 nM

Task: Request: CC1Oc2ccc(-c3ccc(Cn4cnn(C/C(=C/F)CN)c4=O)s3)cc2NC1=O (stereo not shown) [Example 97, hydrochloride]
Output: 28000 nM

Task: Same thing, different compound: `NC/C(=C\F)Cn1ncn(Cc2ccc(-c3ccc(N4CCNCC4)nc3)s2)c1=O`
Output: > 100000 nM

Task: Try the compound NC/C(=C\F)Cn1ncn(Cc2ccc(-c3cc(F)c4c(c3)CC(=O)N4)s2)c1=O [Example 71, hydrochloride]
Output: > 100000 nM

Task: How about this compound: `NC/C(=C\F)Cn1ncn(CCc2ccc(-c3ccc4c(c3)OCO4)s2)c1=O`
Output: > 100000 nM

Task: # repeat for `NC/C(=C/F)Cn1ncn(Cc2ccc(Br)s2)c1=O`
Output: 18000 nM

Task: // same read-out, input: COC(=O)c1ccc(-c2ccc(Cn3cnn(C/C(=C/F)CN)c3=O)s2)cc1 [Example 10, hydrochloride]
Output: > 100000 nM

Task: Here is the next compound: `CN1Cc2cc(-c3ccc(Cn4cnn(C/C(=C/F)CN)c4=O)s3)ccc2NC1=O`
Output: > 100000 nM

Task: What about NC/C(=C\F)Cn1ncn(Cc2ccc(-c3ccc(N4CCNCC4)cc3)s2)c1=O [Example 22, hydrochloride] ?
Output: > 100000 nM

Task: Repeat for the following compound: Cc1cc(-c2ccc(Cn3cnn(C/C(=C/F)CN)c3=O)s2)cc2c1OCC(=O)N2 [Example 91, hydrochloride]
Output: > 10000 nM
